Each record here notes measured pIC50.
EXPERIMENTAL SYSTEM: nAChRs comprised of α4 and β2 subunits (Rattus norvegicus, UniProt P09483+P12390)
Sequence (P09483 31-630): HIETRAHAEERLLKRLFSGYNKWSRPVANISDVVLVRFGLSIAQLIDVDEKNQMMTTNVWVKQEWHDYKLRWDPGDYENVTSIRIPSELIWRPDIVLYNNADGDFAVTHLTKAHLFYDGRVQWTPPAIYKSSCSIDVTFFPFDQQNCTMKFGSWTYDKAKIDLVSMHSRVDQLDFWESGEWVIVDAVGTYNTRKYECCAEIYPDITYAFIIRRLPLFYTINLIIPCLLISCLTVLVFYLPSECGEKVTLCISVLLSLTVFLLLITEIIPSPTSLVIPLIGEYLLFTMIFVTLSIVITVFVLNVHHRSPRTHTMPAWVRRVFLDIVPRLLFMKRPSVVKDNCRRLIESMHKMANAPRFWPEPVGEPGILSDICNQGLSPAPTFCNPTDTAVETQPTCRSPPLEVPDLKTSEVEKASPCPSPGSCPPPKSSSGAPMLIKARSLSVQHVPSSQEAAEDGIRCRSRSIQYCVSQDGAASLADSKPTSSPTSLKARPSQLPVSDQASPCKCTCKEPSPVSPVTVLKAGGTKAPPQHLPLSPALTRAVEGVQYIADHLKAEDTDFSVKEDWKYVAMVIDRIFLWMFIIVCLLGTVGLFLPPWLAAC
Sequence (P12390 25-500): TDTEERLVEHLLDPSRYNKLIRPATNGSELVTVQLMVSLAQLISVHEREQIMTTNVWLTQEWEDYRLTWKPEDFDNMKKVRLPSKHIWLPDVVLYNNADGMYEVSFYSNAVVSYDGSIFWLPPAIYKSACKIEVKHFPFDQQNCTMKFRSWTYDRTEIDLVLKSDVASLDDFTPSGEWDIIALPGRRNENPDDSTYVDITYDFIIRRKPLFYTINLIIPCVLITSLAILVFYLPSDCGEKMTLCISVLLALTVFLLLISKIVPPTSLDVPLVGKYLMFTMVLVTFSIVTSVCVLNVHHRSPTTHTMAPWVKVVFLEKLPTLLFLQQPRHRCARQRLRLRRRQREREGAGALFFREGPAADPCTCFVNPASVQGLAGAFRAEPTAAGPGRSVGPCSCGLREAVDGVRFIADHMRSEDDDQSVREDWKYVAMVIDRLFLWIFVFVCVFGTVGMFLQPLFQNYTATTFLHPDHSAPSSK
METHOD: In vitro inhibition of 3H-cytisine binding
In simple prose, pIC50 is minus the logarithm base ten of a concentration in moles per litre.

CN1CCCN(c2cncc(OC3CCCC3)c2)CC1 [Compound 25E] = 7.10

Q. Name the recorded pIC50 for CC(C)COc1cncc(N2CCCN(C)CC2)c1 [Compound 8E] .
A. 7.15

Q. Same again, this time with COc1cncc(N2CCN(C)C2)c1 [Compound 1M]
A. 6.23

Q. Another compound: CCCOc1cncc(N2CCCNCC2)c1 [Compound 10H, 1-(5-Propyloxy-3-pyridyl)-homopiperazine]
A. 9.05

Q. Please give the result for CN1CCN(c2cncc(Cl)c2)CC1 [Compound 5A] too.
A. 7.10

Q. Ok, now CCOc1cncc(N2CCCN(C)CC2)c1 [Compound 4E]
A. 7.30

----------
EXPERIMENTAL SYSTEM: nAChRs comprised of α4 and β2 subunits (Rattus norvegicus, UniProt P09483+P12390)
METHOD: In vitro inhibition of 3H-cytisine binding
Below is a list of entries, each paired with its recorded pIC50 value.
Value format note: pIC50 is -log10 of concentration (mol/L); just state the number.

Solved entries:
CCOc1cncc(N2CCCNCC2)c1 [Compound 3H, 1-(5-Ethoxy-3-pyridyl)-homopiperazine] = 8.70
COCCOc1cncc(N2CCCNCC2)c1 [Compound 5H] = 8.70
COc1cc(N2CCCNCC2)cnc1Cl [Compound 5F] = 9.15
CCOc1cncc(N2CCN(CC)CC2)c1 [Compound 9D] = 7.15
c1cncc(N2CCCNCC2)c1 [Compound 1F, 1-(3-Pyridyl)-homopiperazine] = 8.70

Next, consider the following molecule.
Q. Given the molecule Clc1ccc(N2CCCNCCC2)nn1 [Compound 7B] , what is its reported pIC50?
A. 7.52

----------
EXPERIMENTAL SYSTEM: nAChR formed by the α7 subunit isoform (Rattus norvegicus, UniProt Q05941)
Sequence (Q05941 23-502): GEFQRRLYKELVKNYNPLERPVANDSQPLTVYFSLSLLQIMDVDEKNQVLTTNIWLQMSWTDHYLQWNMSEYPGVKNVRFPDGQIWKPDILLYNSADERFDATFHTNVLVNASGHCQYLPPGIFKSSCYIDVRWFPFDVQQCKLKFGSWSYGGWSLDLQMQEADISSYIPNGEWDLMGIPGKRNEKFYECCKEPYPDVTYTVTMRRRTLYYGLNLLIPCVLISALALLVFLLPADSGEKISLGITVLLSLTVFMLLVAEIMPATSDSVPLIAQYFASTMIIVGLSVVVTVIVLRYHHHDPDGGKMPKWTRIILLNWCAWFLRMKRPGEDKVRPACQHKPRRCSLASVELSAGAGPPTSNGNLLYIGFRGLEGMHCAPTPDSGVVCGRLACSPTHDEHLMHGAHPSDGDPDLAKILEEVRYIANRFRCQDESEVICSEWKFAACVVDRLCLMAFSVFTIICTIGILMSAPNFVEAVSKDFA
METHOD: biochemical
Assay type: binding
pIC50: −log10 of the molar value.
Reported pIC50 values follow for various compounds

// known answers, use as guide
CN1CCCN(c2cncc(OC3CCCC3)c2)CC1 [Compound 25E] = < 4.52
CCCOc1cncc(N2CCCN(C)CC2)c1 [Compound 10E] = < 4.52
COc1cncc(N2CCN(C)CC2)c1 [Compound 3A] = 4.49
Clc1cncc(N2CCNCC2)c1 [Compound 4B, 1-(5-Chloro-3-pyridyl)-piperazine] = < 4.52
CCCCCCOc1cncc(N2CCCN(C)CC2)c1 [Compound 11E] = < 4.52
CCOc1cncc(N2CCNCC2)c1 [Compound 1D, 1-(5-Ethoxy-3-pyridyl)piperazine] = < 4.52
COc1cc(N2CCCNCC2)cnc1Cl [Compound 5F] = 6.05
CCOc1cncc(N2CCN(CC)CC2)c1 [Compound 9D] = < 4.52

Q. What measured pIC50 is associated with COc1cncc(N2CCNCC2)c1 [Compound 3B, 1-(5-Methoxy-3-pyridyl)-piperazine] on nAChR formed by the α7 subunit isoform (Rattus norvegicus, UniProt Q05941)?
A. < 4.52

Q. Then what about the compound CN1CCCN(c2cncc(OCC3CCCCC3)c2)CC1 [Compound 14E] ?
A. < 4.52

Q. Now this one: CCCCCOc1cncc(N2CCCN(C)CC2)c1 [Compound 15E]
A. < 4.52

Q. And what about the compound CC(C)CCOc1cncc(N2CCCN(C)CC2)c1 [Compound 12E] ?
A. < 4.52

Q. And for COc1cncc(N2CCCN(C)CC2)c1 [Compound 3E] ?
A. 4.59

----------
Where a name gives a salt, the structure may show the parent alone.
MEASUREMENT LABEL: melting point

c1ccc(-c2cncc(N3CCCNCC3)c2)cc1 (as salt: fumaric acid salt) = 185 to 186 °C
CN1CCCN(c2cncc(-c3cccnc3)c2)CC1 (as salt: fumaric acid salt) [Compound 19E] = 165.5 to 167.5 °C
c1ccc(CN2CCCN(c3cccnc3)CC2)cc1 (as salt: fumaric acid salt) = 148.4 to 149 °C

Q. Could you share which melting point value was measured for CC1CCN(c2ccc(Cl)nn2)CCCN1 (stereo not drawn) (as salt: fumaric acid salt) ?
A. 166 to 168 °C

Q. Another compound: C/C=C/Oc1cncc(N2CCCN(C)CC2)c1 (as salt: fumaric acid salt) [Compound 17E]
A. 126 to 128 °C

Q. Follow-up entry: COc1cc(N2CCCNCC2)cnc1Cl (as salt: fumaric acid salt)
A. 196 to 197 °C

Q. Same question for CN1CCN(c2cncc(Cl)c2)CC1 (as salt: fumaric acid salt) please.
A. 162 to 163 °C

Q. And what about the compound CCCOc1cncc(N2CCCN(C)CC2)c1 (as salt: fumaric acid salt) [Compound 10E] ?
A. 148.8 to 153.5 °C

Q. How about this compound: COc1cncc(N2CCCNCCC2)c1 (as salt: fumaric acid salt)
A. 158 to 160 °C

Q. Try this compound too: CCCCCCCOc1cncc(N2CCCN(C)CC2)c1 (as salt: fumaric acid salt) [Compound 16E]
A. 120.2 to 121.8 °C

----------
EXPERIMENTAL SYSTEM: neuronal nicotinic receptors (α4β2 subtype high affinity site) (Rattus norvegicus, UniProt P09483+P12390)
Construct: The forebrain (÷cerebellum) from a male Wistar rat (150-250 g) is homogenized; from tissue; host or cells: rat forebrain (without cerebellum) membrane homogenate
METHOD: In vitro inhibition of 3H-epibatidin binding
MEASUREMENT LABEL: IC50 (nM)
# unit: nM | format: bare number

CCCCCCCOc1cncc(N2CCCN(C)CC2)c1 [Compound 16E] = 700

Q. Look at this compound and give its reported IC50. Cc1ccc(N2CCCNCC2)nn1 [Compound 5K]
A. 740

Q. Could you do the same for c1cncc(N2CCCNCC2)c1 [Compound 1F, 1-(3-Pyridyl)-homopiperazine] , please?
A. 5

Q. Another compound: CCOc1cncc(N2CCCNCC2)c1 [Compound 3H, 1-(5-Ethoxy-3-pyridyl)-homopiperazine]
A. 10

Q. Same lookup for CCOc1cncc(N2CCN(CC)CC2)c1 [Compound 9D] , please.
A. 210

----------
EXPERIMENTAL SYSTEM: neuronal nicotinic receptors (α4β2 subtype high affinity site) (Rattus norvegicus, UniProt P09483+P12390)
Construct: The forebrain (÷cerebellum) from a male Wistar rat (150-250 g) is homogenized; from tissue; host or cells: rat forebrain (without cerebellum) membrane homogenate
METHOD: In vitro inhibition of 3H-epibatidin binding
log10 of IC50 values, listed per item
Form field - Quantity: IC50; Unit: nM; Scale: log10

CN1CCCN(c2cncc(SCc3ccccc3)c2)CC1 [Compound 18E] = 2.90
CN1CCCN(c2cncc(-c3cccnc3)c2)CC1 [Compound 19E] = 3.26
CC(C)COc1cncc(N2CCCNCC2)c1 = 1.00

Q. Entry under review: Clc1ccc(N2CCCNCC2)nn1 . Reported log10 of IC50?
A. 1.78

Q. Now consider Clc1cncc(N2CCCNCC2)n1 and answer again.
A. 2.20

----------
melting point values by entry
Structures can show the parent of a compound that is named as a salt.

COCCOc1cncc(N2CCCNCC2)c1 (as salt: fumaric acid salt) [Compound 5H] = 126 to 127 °C
CN1CCCN(c2ccc(Cl)nn2)CC1 (as salt: fumaric acid salt) = 171 to 172 °C
COc1cc(N2CCCNCC2)cnc1OC (as salt: fumaric acid salt) = 150 to 152 °C

Q. Need melting point, item c1cncc(N2CCNCC2)c1 (as salt: fumaric acid salt) [Compound 1B, 1-(3-Pyridyl)-piperazine]
A. 161.7 to 164.8 °C

Q. Entry to check: c1ncc(N2CCCNCC2)cc1OCC1CC1 (as salt: fumaric acid salt) [Compound 9H]
A. 154 to 156 °C

Q. Follow-up item: O=[N+]([O-])c1cccc(N2CCCNCC2)c1 (as salt: fumaric acid salt)
A. 163.1 to 164.4 °C

Q. Would you mind doing Cc1cnc(C)c(N2CCCNCC2)n1 (as salt: fumaric acid salt) as well?
A. 149 to 151 °C

Q. Would you mind doing CCN1CCCN(c2cccnc2)CC1 (as salt: fumaric acid salt) as well?
A. 145.3 to 147.5 °C

Q. Queued: Oc1cncc(N2CCCNCC2)c1 (as salt: hydrochloric acid salt)
A. 290 to 300 °C

Q. Try this molecule next: COc1cncc(N2CCCN(C)C2)c1 (as salt: fumaric acid salt) [Compound 2M]
A. 149 to 151 °C

Q. Thanks! And CCCOc1cncc(N2CCCNCCC2)c1 (as salt: fumaric acid salt) ?
A. 150 to 152 °C

Q. One more molecule: C=COc1cncc(N2CCN(C)CC2)c1 (as salt: fumaric acid salt)
A. 136.4 to 138.2 °C

Q. Queued: c1ccc(-c2cncc(N3CCNCC3)c2)cc1 (as salt: fumaric acid salt)
A. 167.5 to 168.5 °C

Q. What about this molecule? C=COc1cncc(N2CCNCC2)c1 (as salt: fumaric acid salt)
A. 136.4 to 138.2 °C

Q. CN1CCN(c2cnc3ccccc3c2)CC1 ?
A. 116.5 to 117 °C

Q. Next record, please: CN1CCCN(c2cccnn2)CC1 (as salt: fumaric acid salt)
A. 137.8 to 139.3 °C

Q. Then this molecule: c1cncc(-c2cncc(N3CCCNCC3)c2)c1 (as salt: fumaric acid salt)
A. 160 to 162 °C
